Where do these numbers come from? They come from a melting point compilation (Tetko et al.; mined from patent text by program, amines drawn as free bases though some values may be those of a salt).

EXPERIMENTAL ENDPOINT: melting point

Some molecules with recorded melting point:
Identify measured melting point corresponding to CCN(CC)C(=O)N(C1CCCCC1)C1CCN(C(=O)C(Cc2ccc(Cl)cc2)NC2CCNCC2)CC1 (stereo not given)
> 220 °C

Tell me measured melting point for O=c1ccn(CCO)c(C(O)c2ccc(F)cc2)c1O (stereo not given) please.
187 to 188 °C

Please report the measured melting point for O=C1NC(=S)S/C1=C\c1ccccc1Nc1cccc(C(F)(F)F)c1
234 to 236 °C

Item Cc1ccc(S(=O)(=O)OCC2COc3ccc4c(c3O2)CCO4)cc1 (stereo not given) : provide melting point
95 to 96 °C

Lab note: next molecule to report on.
Quote melting point reported for CS(=O)(=O)c1ccc(-c2cnn(-c3ccccc3F)c(=O)c2-c2ccc(F)cc2)cc1 please.
96 to 103 °C

###

EXPERIMENTAL ENDPOINT: melting point

Give the reported melting point for this compound. COCCOc1c(C(=O)CC(=O)C(=O)O)ccc(Cc2ccccc2)c1OC
83 to 85 °C

Return value of melting point for input CC(C)c1ccc(C(F)(F)C(F)(F)c2ccccc2)cc1 , no commentary.
97 to 104 °C

Answer with reported melting point of CC(C)C1N(CC(N)=O)C(=O)CN1C(=O)CCl (stereo not given)
163 °C

###

Form field: melting point (one value per entry).

Examples with answers:
Look up and state reported melting point for N#Cc1nn(-c2c(Cl)cc(C(F)(F)F)cc2Cl)c(N)c1-c1cccc(N)c1
187 °C

Identify the reported melting point for the following entry. O=C(Nc1ccc(S(=O)(=O)C[N+](=O)[O-])cc1)c1ccccc1
211 to 212 °C

Check the records and state melting point for COc1ccc(Nc2nc(Nc3cc4c(cc3OC)CCN(CC(=O)N(C)C)CC4)ncc2Cl)c(S(=O)(=O)C(C)C)c1
68 to 79 °C

Return the recorded melting point value; entry: N#CC(c1ccnc(OCc2ccccc2)n1)c1nc2ccccc2s1 (stereo not given)
196 to 198 °C

Give the reported value of melting point for this record: O=C1C(=O)N(C(c2ccccc2)c2ccccc2)c2c(Cl)cccc21
172 to 173 °C

Tell me its melting point given COc1ccc(C(C#Cc2ccccc2)CN(C)C(=O)C(=O)O)cc1OC1CCCC1 (racemic) as the entry.
157 to 159 °C

In one line, give reported melting point of the entry CC(=O)c1c(-c2cccc([N+](=O)[O-])c2)cc(C(=O)NCCN2CCOCC2)nc1C .
107 to 110 °C

Tell us which melting point value is on record for O=C(CC(C(=O)O)C1CCCCC1)Nc1cccc(/C=C/c2nc(C3CCC3)cs2)c1 (stereo not given)
205 to 207 °C

Give the value of melting point reported for the following: CC(C)(C)c1c(-c2ccc(S(C)(=O)=O)cc2)cnn(-c2ccc(F)c(F)c2)c1=O
158 to 161 °C

Please report melting point for the following molecule: CN1CCCC1=C(C#N)c1ccc(Cl)cc1
71 to 72 °C

---
Please give measured melting point of the following entry: CCn1nc(C(=O)OC(C)C)cc(Nc2cncc3ccccc23)c1=O
192 to 193 °C

###

EXPERIMENTAL ENDPOINT: melting point

Return the recorded melting point value; entry: COCOc1ccc(Nc2ncccc2[N+](=O)[O-])cc1
80 to 81 °C

Supply recorded melting point for Cn1cc(-c2cc3cccnc3[nH]2)c2cc(C(=O)NCC(O)CO)ccc21 (centres undefined) here.
171 to 172 °C

Look up and state reported melting point for O=C(O)Cc1cccc(C(=O)c2ccc(Cl)cc2)c1
148 °C

Using known records, supply melting point for Cc1ccc(SC2CC(=O)N2CC(=O)NCCCCCCc2ccc(Cl)cc2)cc1 (centres undefined)
63 to 65 °C

Consider the compound CNC(=S)C1(c2ccc(Cl)c(Cl)c2)CCCCS1 (centres undefined) and give its recorded melting point.
116 to 117 °C

***
Could you please provide reported melting point for CC1=C(C(=O)OC(C)(C)C)C(c2cc(Cl)ccc2Cl)C(C(=O)OC(C)(C)C)=C(C)N1 ? Thanks!
181 to 183 °C

Answer with the recorded melting point for the compound listed here: CCn1c(=O)c(C(=O)NCCO)c(NCCO)c2cnc(-c3ccccc3)nc21
250 to 253 °C

Name the recorded melting point of the compound listed here: CC(C)(C)OC(=O)N1C(=O)C(Br)=C(c2cn(C(=O)OC(C)(C)C)c3ccc(OCc4ccccc4)cc23)C1=O
134 °C

Consider the compound COc1cc(C)nc(NC(=O)NS(=O)(=O)c2ccccc2C2CC2(Cl)Cl)n1 (centres undefined) . State its measured melting point.
187 to 191 °C
